target: IR Activated (Homo sapiens (Human), UniProt P06213); assay: KinaseProfiler off-target kinase profiling; format: biochemical; details: 10 μM, ATP near Km
Sequence (P06213 1005-1310 limits assumed): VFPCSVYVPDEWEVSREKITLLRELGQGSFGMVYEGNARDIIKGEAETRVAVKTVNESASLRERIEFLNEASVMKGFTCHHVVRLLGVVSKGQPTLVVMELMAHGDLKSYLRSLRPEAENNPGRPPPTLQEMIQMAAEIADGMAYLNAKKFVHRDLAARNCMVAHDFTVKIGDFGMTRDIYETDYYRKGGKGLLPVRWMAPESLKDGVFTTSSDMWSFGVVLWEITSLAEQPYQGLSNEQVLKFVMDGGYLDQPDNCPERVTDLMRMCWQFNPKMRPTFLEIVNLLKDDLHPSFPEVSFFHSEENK
parameter measured: Avg. POC (POC)

Q: Please supply the value of reported Avg. POC for the item Cc1c(-c2ccc(=O)n(C)c2)nn(-c2ccccc2)c1NC(=O)NC1CN(CC(F)(F)F)Cc2ccccc21 (stereo not shown)
Result: 106

Q: Item Cc1c(-c2cnn(C)c2)nn(-c2ccccc2)c1NC(=O)N[C@H]1CCCc2ccccc21 : provide Avg. POC
Result: 103

Q: Retrieve Avg. POC measured for Cc1c(-c2cnn(C)c2)nn(-c2ccccc2)c1NC(=O)NC1CCOc2cc(F)ccc21 (stereo not shown) and print it.
Result: 109

Q: Give the value of Avg. POC reported for the following: COCc1ccc2c(c1)C(NC(=O)Nc1c(C)c(-c3cnn(C)c3)nn1-c1ccccc1)COC2 (stereo not shown)
Result: 111.5

###

target: Yes (Homo sapiens (Human)); experiment: KinaseProfiler off-target kinase profiling; format: biochemical; details: 10 μM, ATP near Km
Sequence (P07947 whole entry): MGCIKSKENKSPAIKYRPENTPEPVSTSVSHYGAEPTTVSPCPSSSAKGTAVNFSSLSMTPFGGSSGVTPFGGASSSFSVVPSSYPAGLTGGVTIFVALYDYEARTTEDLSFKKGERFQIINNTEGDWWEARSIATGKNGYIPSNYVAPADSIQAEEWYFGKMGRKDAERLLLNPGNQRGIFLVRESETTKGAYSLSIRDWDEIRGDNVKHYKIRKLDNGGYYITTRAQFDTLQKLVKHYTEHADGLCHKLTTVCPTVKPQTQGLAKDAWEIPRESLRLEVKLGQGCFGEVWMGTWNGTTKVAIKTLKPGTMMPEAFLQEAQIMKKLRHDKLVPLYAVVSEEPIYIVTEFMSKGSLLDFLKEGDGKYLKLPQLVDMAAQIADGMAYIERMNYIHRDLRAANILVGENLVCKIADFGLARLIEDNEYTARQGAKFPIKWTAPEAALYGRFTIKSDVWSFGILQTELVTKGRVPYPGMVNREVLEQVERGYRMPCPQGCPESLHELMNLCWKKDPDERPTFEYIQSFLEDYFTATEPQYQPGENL
parameter measured: Avg. POC (POC)

Q: Give Avg. POC; test system Yes (Homo sapiens (Human)); compound COCc1ccc2c(c1)C(NC(=O)Nc1c(C)c(-c3cnn(C)c3)nn1-c1ccccc1)COC2 (stereo not shown)
Result: 114.5

Q: Consider the compound Cc1c(-c2cnn(C)c2)nn(-c2ccccc2)c1NC(=O)NC1CCOc2cc(F)ccc21 (stereo not shown) tested on Yes (Homo sapiens (Human)); state its Avg. POC.
Result: 119.5

Q: Supply Avg. POC measured with Yes (Homo sapiens (Human)) for Cc1c(-c2cnn(C)c2)nn(-c2ccccc2)c1NC(=O)N[C@H]1CCCc2ccccc21 .
Result: 132.5

Q: // output Avg. POC; input Cc1c(-c2ccc(=O)n(C)c2)nn(-c2ccccc2)c1NC(=O)NC1CN(CC(F)(F)F)Cc2ccccc21 (stereo not shown) ; system Yes (Homo sapiens (Human))
Result: 117.5

###

target: CLK2 (Homo sapiens (Human), UniProt P49760); assay: KinaseProfiler off-target kinase profiling; format: biochemical; conditions: 10 μM, ATP near Km
Sequence (P49760 whole entry): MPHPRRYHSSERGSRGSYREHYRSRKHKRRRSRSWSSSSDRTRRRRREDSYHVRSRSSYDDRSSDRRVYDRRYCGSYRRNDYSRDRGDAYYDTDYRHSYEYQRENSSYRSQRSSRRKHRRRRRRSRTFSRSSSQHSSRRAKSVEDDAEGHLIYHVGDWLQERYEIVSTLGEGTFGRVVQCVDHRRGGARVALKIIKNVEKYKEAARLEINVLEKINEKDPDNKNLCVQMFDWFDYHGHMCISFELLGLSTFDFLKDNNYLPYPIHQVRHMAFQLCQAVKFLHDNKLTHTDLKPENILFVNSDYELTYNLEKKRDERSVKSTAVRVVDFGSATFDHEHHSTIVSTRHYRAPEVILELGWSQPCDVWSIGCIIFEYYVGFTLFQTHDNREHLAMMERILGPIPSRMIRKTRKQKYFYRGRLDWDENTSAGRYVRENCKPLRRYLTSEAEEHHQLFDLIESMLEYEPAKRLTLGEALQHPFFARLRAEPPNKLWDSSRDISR
parameter measured: Avg. POC (POC)

Q: Consider the molecule Cc1c(-c2ccc(=O)n(C)c2)nn(-c2ccccc2)c1NC(=O)NC1CN(CC(F)(F)F)Cc2ccccc21 (stereo not shown) . State its measured Avg. POC.
Result: 108.5

Q: Determine its reported Avg. POC: Cc1c(-c2cnn(C)c2)nn(-c2ccccc2)c1NC(=O)N[C@H]1CCCc2ccccc21
Result: 115.5

Q: Give the reported Avg. POC for this molecule. Cc1c(-c2cnn(C)c2)nn(-c2ccccc2)c1NC(=O)NC1CCOc2cc(F)ccc21 (stereo not shown)
Result: 100

Q: Let me know recorded Avg. POC for COCc1ccc2c(c1)C(NC(=O)Nc1c(C)c(-c3cnn(C)c3)nn1-c1ccccc1)COC2 (stereo not shown) , thanks.
Result: 105.5

###

target: His-tagged recombinant human TrkA (Homo sapiens (Human), UniProt P04629); assay: TrkA LanthaScreen Eu Kinase Binding Assay; conditions: averaged IC50; TR-FRET binding, 60 min, 22° C.; read-out: TrkA Enzyme IC50
Sequence (P04629 440-796): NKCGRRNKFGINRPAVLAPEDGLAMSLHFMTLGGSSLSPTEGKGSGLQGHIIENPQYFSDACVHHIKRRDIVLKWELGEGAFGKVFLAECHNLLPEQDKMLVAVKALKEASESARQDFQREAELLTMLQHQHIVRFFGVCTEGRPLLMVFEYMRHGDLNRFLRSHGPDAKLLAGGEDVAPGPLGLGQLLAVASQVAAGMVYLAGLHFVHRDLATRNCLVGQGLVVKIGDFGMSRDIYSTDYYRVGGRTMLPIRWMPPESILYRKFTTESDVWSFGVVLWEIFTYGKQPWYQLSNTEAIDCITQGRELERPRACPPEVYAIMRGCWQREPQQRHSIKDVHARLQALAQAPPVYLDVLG
This listing pairs molecules with measured IC50.

See these solved cases before continuing.
Q: Supply reported IC50 belonging to this molecule: COC(=O)c1ccc2c(c1)[C@@H](NC(=O)Nc1c(C)c(C)nn1-c1ccccc1)[C@H](O)CC2(C)C (relative stereo)
Result: < 0.1 µM

Q: Name the recorded IC50 of the item COCCO[C@H]1Cc2ccccc2[C@@H]1NC(=O)Nc1c2c(nn1-c1ccccc1)CCC2 in your answer.
Result: 0.1 to 1 µM

Q: Identify IC50 associated with the molecule COc1nn(-c2ccccc2)c(NC(=O)N[C@@H]2c3cc(F)c(F)cc3C(C)(C)C[C@H]2O)c1C
Result: < 0.1 µM

Further cases:
Q: # return recorded IC50 for input CCOc1nn(-c2ccccc2)c(NC(=O)N[C@@H]2c3ccccc3C3(CC3)[C@H]2O)c1C (relative stereo)
Result: < 0.1 µM

Q: Given Cc1c(OC2CN3CCC2CC3)nn(-c2ccccc2)c1NC(=O)N[C@@H]1c2ccccc2C(C)(C)C[C@H]1O (stereo partly shown) , respond with its IC50.
Result: < 0.1 µM

Q: Identify measured IC50 corresponding to Cc1c(-c2cnn(C)c2)nn(-c2ccccc2)c1NC(=O)N[C@@H]1c2cc(F)c(F)cc2C2(CC2)[C@H]1O (relative stereo)
Result: < 0.1 µM

Q: Assign IC50 to the following record: Cc1c(OCC2CCN(C)CC2)nn(-c2ccccc2)c1NC(=O)N[C@@H]1c2cc(F)c(F)cc2C(C)(C)C[C@H]1O
Result: < 0.1 µM

Q: Please indicate IC50 recorded for COCc1ccc2c(c1)C(NC(=O)Nc1c(C)c(-c3cnn(C)c3)nn1-c1ccccc1)COC2 (stereo not shown)
Result: < 0.1 µM

Q: Recall and state the measured IC50 for Cc1ncc(-c2nn(-c3ccccc3)c(NC(=O)N[C@@H]3c4ccccc4C4(CC4)[C@H]3O)c2C)cn1 (relative stereo) .
Result: < 0.1 µM

Q: Give the measured IC50 for CNC(=O)c1nn(-c2ccccc2)c(NC(=O)N[C@@H]2c3cc(F)c(F)cc3C(C)(C)C[C@H]2O)c1C
Result: < 0.1 µM

Origin of values: patent US10351575B2
